- TARGET_OR_TEST_SYSTEM: T1, human Claudin 6 (human, UniProt P56747 1-220)
- T1 construct: whole, on cells; also called CLDN6
- T1 sequence (looked up): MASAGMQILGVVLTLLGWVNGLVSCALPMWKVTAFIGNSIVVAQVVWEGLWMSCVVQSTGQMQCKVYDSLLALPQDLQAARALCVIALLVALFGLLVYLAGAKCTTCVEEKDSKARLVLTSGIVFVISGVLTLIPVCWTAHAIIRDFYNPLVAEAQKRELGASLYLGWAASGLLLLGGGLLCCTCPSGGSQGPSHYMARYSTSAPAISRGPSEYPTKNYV
- EXPERIMENT_NOTES: flow cytometry, HEK293/H_CLDN6 cells, Ab titrated from 100 nM
REPORTED_METRIC: Top MFI
Provide a numeric answer; units are not to be included.

# example entries with known answers
BINDER	REPORTED_METRIC	NUMERIC_VALUE
97-C10E1-2-P1.z2 (antibody, V domains shown) VH: QVQLVQSGAEVKKPGASVKVSCKASGYAFTGYTMNWVRQAPGQGLEWIGLSNPYNAGTIYNQKFKGRVTMTVDKSTSTVYMELSSLRSEDTAVYYCARNYYYGSSYAYYYAMDYWGQGTTVTVSS VL: EAVVTQSPATLSVSPGERATLSCRSSTGAVTTSNYANWVQEKPGQAFRGLIGGTNNRAPGIPARFSGSLSGDEATLTISSLQSEDFAVYFCALWYSNHWVFGGGTKVEIK	Top MFI	207000
97-C10E1-2-P1.z8 (antibody, V domains shown) VH: QVQLQQSGAEVKKPGASVKVSCKASGYAFTGYTMNWVRQAPGQNLEWIGLSNPYNAGTIYNQKFKGRVTLTVDKSTSTVYMELLSLRSEDTAVYYCARNYYYGSSYAYYYAMDYWGQGTTVTVSS VL: DAQMTQSPSSLSASVGDRVTITCRSSTGAVTTSNYANWVQQKPGKAPKLLIGGTNNRAPGVPSRFSGSGSGTDATLTISSLQPEDFATYYCALWYSNHWVFGGGTKVEIK	Top MFI	16300
97-C10E1-2-P1.z9 (antibody, V domains shown) VH: QVQLQQSGAEVKKPGASVKVSCKASGYAFTGYTMNWVRQAPGQNLEWIGLSNPYNAGTIYNQKFKGRVTLTVDKSTSTVYMELLSLRSEDTAVYYCARNYYYGSSYAYYYAMDYWGQGTTVTVSS VL: DAQMTQSPSSLSASVGDRVTITCRSSTGAVTTSNYANWVQQKPGKAFKGLIGGTNNRAPGVPARFSGSLSGTDAALTISSLQPEDFATYFCALWYSNHWVFGGGTKVEIK	Top MFI	159000
97-C10E1-2-P1.z7 (antibody, V domains shown) VH: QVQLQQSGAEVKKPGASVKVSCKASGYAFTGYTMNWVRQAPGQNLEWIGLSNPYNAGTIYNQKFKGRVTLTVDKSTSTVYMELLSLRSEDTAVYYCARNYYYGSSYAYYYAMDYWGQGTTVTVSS VL: EAVVTQSPATLSVSPGERATLSCRSSTGAVTTSNYANWVQEKPGQAFRGLIGGTNNRAPGIPARFSGSLSGDEATLTISSLQSEDFAVYFCALWYSNHWVFGGGTKVEIK	Top MFI	181000
97-C10E1-2-P1.z4 (antibody, V domains shown) VH: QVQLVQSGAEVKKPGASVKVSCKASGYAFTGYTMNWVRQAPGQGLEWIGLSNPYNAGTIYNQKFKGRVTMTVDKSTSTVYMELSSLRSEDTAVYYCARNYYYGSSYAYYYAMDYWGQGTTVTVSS VL: DAQMTQSPSSLSASVGDRVTITCRSSTGAVTTSNYANWVQQKPGKAFKGLIGGTNNRAPGVPARFSGSLSGTDAALTISSLQPEDFATYFCALWYSNHWVFGGGTKVEIK	Top MFI	185000
97-C10E1-2-P1.z3 (antibody, V domains shown) VH: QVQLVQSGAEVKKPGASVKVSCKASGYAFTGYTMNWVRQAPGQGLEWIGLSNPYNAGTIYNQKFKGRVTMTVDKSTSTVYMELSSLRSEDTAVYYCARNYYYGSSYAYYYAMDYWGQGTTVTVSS VL: DAQMTQSPSSLSASVGDRVTITCRSSTGAVTTSNYANWVQQKPGKAPKLLIGGTNNRAPGVPSRFSGSGSGTDATLTISSLQPEDFATYYCALWYSNHWVFGGGTKVEIK	Top MFI	27400
97-C10E1-2-P1.z11 (antibody, V domains shown) VH: QVQLQQSGAEVKKPGASMKISCKASGYAFTGYTMNWVRQAPGQNLEWIGLSNPYNAGTIYNQKFKGRATLTVDKSTSTAYMELLSLRSEDTAVYYCARNYYYGSSYAYYYAMDYWGQGTTVTVSS VL: EAVMTQSPATLSVSPGERATLSCRSSTGAVTTSNYANWVQQKPGQAPRLLIGGTNNRAPGIPARFSGSGSGDEATLTISSLQSEDFAVYFCALWYSNHWVFGGGTKVEIK	Top MFI	31000
97-C10E1-2-P1.z6 (antibody, V domains shown) VH: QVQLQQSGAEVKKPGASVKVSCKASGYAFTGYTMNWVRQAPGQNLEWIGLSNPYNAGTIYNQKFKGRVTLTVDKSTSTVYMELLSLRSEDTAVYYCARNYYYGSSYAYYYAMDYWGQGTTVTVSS VL: EAVMTQSPATLSVSPGERATLSCRSSTGAVTTSNYANWVQQKPGQAPRLLIGGTNNRAPGIPARFSGSGSGDEATLTISSLQSEDFAVYFCALWYSNHWVFGGGTKVEIK	Top MFI	32200
97-C10E1-2-P1.z13 (antibody, V domains shown) VH: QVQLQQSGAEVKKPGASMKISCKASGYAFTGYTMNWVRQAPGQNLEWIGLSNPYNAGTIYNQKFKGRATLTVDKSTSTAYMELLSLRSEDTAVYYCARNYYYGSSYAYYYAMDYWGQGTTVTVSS VL: DAQMTQSPSSLSASVGDRVTITCRSSTGAVTTSNYANWVQQKPGKAPKLLIGGTNNRAPGVPSRFSGSGSGTDATLTISSLQPEDFATYYCALWYSNHWVFGGGTKVEIK	Top MFI	15500

Let's switch to this binder now.
-- ask Return reported Top MFI; argument: 97-C10E1-2-P1.z1 (antibody, V domains shown) VH: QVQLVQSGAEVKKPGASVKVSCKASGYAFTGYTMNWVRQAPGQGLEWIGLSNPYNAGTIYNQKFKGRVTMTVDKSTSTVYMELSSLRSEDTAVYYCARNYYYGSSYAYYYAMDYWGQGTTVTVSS VL: EAVMTQSPATLSVSPGERATLSCRSSTGAVTTSNYANWVQQKPGQAPRLLIGGTNNRAPGIPARFSGSGSGDEATLTISSLQSEDFAVYFCALWYSNHWVFGGGTKVEIK
-- reply 45100
